- TESTED_ON: CgBdf1 BD2 (Candida glabrata, UniProt Q6FWV7)
- Sequence (Q6FWV7 entry or part of it): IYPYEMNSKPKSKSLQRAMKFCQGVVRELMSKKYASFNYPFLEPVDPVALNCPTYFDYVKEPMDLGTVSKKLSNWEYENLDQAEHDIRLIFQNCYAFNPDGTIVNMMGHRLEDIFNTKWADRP
- ASSAY: biochemical
- Type: binding, C. glabrata
- EXPERIMENTAL_CONTEXT: Fig 5A; four replicates; read-out: IC50 (μM) BD2, C. gla. Bdf1
READOUT: IC50 (µM)
Quick reminder: number only, in µM, skip the unit.

What reported IC50 corresponds to CC(=O)N1c2ccc(-c3ccc(C(=O)O)cc3)cc2C(Nc2ccc(Cl)cc2)CC1C (stereo not shown) [I-BET726] on CgBdf1 BD2 (Candida glabrata, UniProt Q6FWV7)?
0.085

----------
- Tested on: C. glabrata
- ASSAY: Growth of reference and clinical strains in liquid media
- Format: cell-based
- EXPERIMENTAL_CONTEXT: Nakaseomyces glabratus, read-out: EC50 growth inhibition, Table S5; C. glabrata DSY565, azole-resistant, Pdr1 (L280F)
READOUT: pEC50
A value of pEC50 is the negative decimal logarithm of a concentration given in moles per litre.

Please report the recorded pEC50 for CC(=O)N1c2ccc(-c3ccc(C(=O)O)cc3)cc2C(Nc2ccc(Cl)cc2)CC1C (stereo not shown) .
5.94

----------
- TESTED_ON: CaBdf1 BD1 (Candida albicans)
- Construct: BD1 (residues 193–327) and BD2 (residues 361–501) from CaBdf1 (Uniprot ID Q5A4W8); made in house; host or cells: E. coli BL21(DE3)
- Sequence (Q5A4W8 193-327): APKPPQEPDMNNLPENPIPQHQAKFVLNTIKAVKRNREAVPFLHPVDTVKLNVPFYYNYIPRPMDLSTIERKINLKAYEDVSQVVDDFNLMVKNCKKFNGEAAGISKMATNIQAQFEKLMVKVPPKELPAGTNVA
- ASSAY: HTRF assay, inhibition of H4ac4 peptide binding
- Parameters: species or system C. albicans
- EXPERIMENTAL_CONTEXT: Fig 5A; four replicates; read-out: IC50 (μM) BD1, C. alb. Bdf1
READOUT: IC50 (µM)
Quick reminder: number only, in µM, skip the unit.

Please report the recorded IC50 for CC(=O)N1c2ccc(-c3ccc(C(=O)O)cc3)cc2C(Nc2ccc(Cl)cc2)CC1C (stereo not shown) .
0.27

----------
- TESTED_ON: CgBdf1 BD1 (Candida glabrata)
- Sequence (Q6FWV7 entry or part of it): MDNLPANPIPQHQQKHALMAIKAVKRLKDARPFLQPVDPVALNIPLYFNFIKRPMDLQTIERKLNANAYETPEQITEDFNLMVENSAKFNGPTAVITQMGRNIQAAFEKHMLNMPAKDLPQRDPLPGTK
- ASSAY: HTRF assay, inhibition of H4ac4 peptide binding
- Design: species or system C. glabrata
- EXPERIMENTAL_CONTEXT: Table S4; means ± SD, n=3; read-out: IC50 CgBD1
READOUT: IC50 (µM)
Quick reminder: number only, in µM, skip the unit.

Please report the recorded IC50 for "Cn1nccc1C(=O)NCc1ccc(-c2nc(-c3cccs3)no2)s1" .
0.61

----------
- TESTED_ON: Bdf1‐SmBiT/H2A.Z‐LgBiT pair (Saccharomyces cerevisiae, UniProt P35817)
- Construct: expressed in transfected cells; host or cells: S. cerevisiae (H2A.Z-LgBiT strain)
- Sequence (P35817 whole entry): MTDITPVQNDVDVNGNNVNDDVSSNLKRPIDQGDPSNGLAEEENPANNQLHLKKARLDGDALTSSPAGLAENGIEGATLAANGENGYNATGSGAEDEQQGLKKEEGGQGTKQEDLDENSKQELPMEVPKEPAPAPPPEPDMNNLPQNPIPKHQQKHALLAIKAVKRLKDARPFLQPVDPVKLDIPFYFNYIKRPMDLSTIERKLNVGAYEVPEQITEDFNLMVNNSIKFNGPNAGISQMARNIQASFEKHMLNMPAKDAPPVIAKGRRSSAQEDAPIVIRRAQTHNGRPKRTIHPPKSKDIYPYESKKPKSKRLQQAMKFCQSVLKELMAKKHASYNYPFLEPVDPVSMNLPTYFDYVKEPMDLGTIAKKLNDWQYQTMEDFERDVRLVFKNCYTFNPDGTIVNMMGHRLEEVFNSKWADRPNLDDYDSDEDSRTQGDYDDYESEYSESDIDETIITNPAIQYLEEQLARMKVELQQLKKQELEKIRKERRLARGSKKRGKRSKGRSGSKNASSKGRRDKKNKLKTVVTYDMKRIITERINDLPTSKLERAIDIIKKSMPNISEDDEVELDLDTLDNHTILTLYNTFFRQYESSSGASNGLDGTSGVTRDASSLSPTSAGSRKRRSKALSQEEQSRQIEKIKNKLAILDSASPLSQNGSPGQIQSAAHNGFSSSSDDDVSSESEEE
- ASSAY: NanoBiT assay
- Format: cell-based, S. cerevisiae
- EXPERIMENTAL_CONTEXT: mean and s.d., 4 independent experiments; read-out: IC50 (μM) (ScBdf1 / H2A.Z) NanoBiT signal
READOUT: IC50

CC(=O)N1c2ccc(-c3ccc(C(=O)O)cc3)cc2C(Nc2ccc(Cl)cc2)CC1C (centres unmarked); 2.1 µM

Attention now turns to another entry.
Please report the recorded IC50 for Cc1ccc(-c2nnc(C)c(NCc3ccc(C)o3)n2)cc1 [Compound 24c] .
65 µM

----------
- TESTED_ON: human Brd4 BD1 (Homo sapiens, UniProt O60885)
- ASSAY: HTRF assay, inhibition of H4ac4 peptide binding
READOUT: IC50

Cc1ccc(-c2nnc(C)c(NCc3ccc(C)o3)n2)cc1 [Compound 24c]; > 20 µM

Attention now turns to another entry.
What reported IC50 corresponds to "COc1ccc(CNc2nc(-c3ccccc3)nnc2C)cc1" on human Brd4 BD1 (Homo sapiens, UniProt O60885)?
> 20 µM
